Origin of measurements: patent US12258337B2

Biological target: mCX3CR1 (Mus musculus, UniProt Q9Z0D9)
Construct: stably expresses a Ca2+ sensitive photo-protein
Sequence (Q9Z0D9 whole entry): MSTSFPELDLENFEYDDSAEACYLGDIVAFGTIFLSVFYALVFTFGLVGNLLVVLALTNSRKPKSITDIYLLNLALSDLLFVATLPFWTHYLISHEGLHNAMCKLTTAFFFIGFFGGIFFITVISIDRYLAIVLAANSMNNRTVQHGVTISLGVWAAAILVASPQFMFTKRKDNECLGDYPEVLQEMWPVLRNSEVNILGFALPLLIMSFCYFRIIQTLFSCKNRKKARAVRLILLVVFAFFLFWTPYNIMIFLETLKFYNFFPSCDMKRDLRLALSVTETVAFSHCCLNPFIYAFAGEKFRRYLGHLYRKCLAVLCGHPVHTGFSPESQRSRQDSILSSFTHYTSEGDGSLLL
Experiment: Ga16 assay, CX3CR1 agonism, Ca2+ sensitive photo-protein readout (FLIPRTETRA)
Settings: mouse CX3CR1 cell line
Procedure: Compounds (as well as stereoisomer(s) thereof and/or salt(s) thereof) were tested for CX3CR1 agonism in a cell based assay with fluorescent readout in Agonist Mode in dose response in quadruplicate with intra-plate modality). Buffers and reagents. […] Assay protocol. […] Twenty-four hours later, cells ere assayed for the response to various compounds using the Ca^2+ sensitive photo-protein stably expressed in the cells as readout. […]
pEC50: −log10 of the molar value.
Endpoint label: pEC50

Recorded pEC50, per entry:
{"Molecule": "O=C(NCC1(CN2C[C@H]3CCO[C@@H]3C2)CCCC1)c1cc2c(s1)CCCCCC2", "Target desc": "mCX3CR1 (Mus musculus, UniProt Q9Z0D9)", "Observed value": 4.47}
{"Molecule": "CN(C)CC(C)(C)CNC(=O)c1cc2c(s1)CCCCCC2", "Target desc": "mCX3CR1 (Mus musculus, UniProt Q9Z0D9)", "Observed value": 4.35}
{"Molecule": "CCN(CC)CC1(CNC(=O)c2cc3c(s2)CCCCCC3)CCCC1", "Target desc": "mCX3CR1 (Mus musculus, UniProt Q9Z0D9)", "Observed value": 5.04}
{"Molecule": "O=C(NCC1(CN2CCC(O)CC2)CCCC1)c1cc2c(s1)CCCCCC2", "Target desc": "mCX3CR1 (Mus musculus, UniProt Q9Z0D9)", "Observed value": 5.00}
{"Molecule": "CN(C)CC1(CNC(=O)c2cc3c(s2)CCCCCC3)CCCC1", "Target desc": "mCX3CR1 (Mus musculus, UniProt Q9Z0D9)", "Observed value": 4.99}

[P] COC1CCN(CC(C)(C)CNC(=O)c2cc3c(s2)CCCCCC3)CC1
[Q] O=C(NCC1(CN2CCC(O)C2)CCCC1)c1cc2c(s1)CCCCCC2 (racemic) [Example 25]
Exercise: Hi team, can someone confirm which has the larger pEC50: P or Q ? Thanks. Indicate your choice by writing its label.
Solution: Q
(Q: 4.40, P: 4.15)

[P] O=C(NCC1(CN2CCCC2)CC(O)C1)c1cc2c(s1)CCCCCC2 (stereo not drawn)
[Q] CC(C)(CNC(=O)c1cc2c(s1)CCCCCCC2)CN1CCCC1
Exercise: Sorting by pEC50 in descending order, would P or Q appear first? Give the chosen item's label as your response.
Solution: P

----------
Biological target: hCX3CR1 (Homo sapiens, UniProt P49238)
Sequence (P49238 whole entry): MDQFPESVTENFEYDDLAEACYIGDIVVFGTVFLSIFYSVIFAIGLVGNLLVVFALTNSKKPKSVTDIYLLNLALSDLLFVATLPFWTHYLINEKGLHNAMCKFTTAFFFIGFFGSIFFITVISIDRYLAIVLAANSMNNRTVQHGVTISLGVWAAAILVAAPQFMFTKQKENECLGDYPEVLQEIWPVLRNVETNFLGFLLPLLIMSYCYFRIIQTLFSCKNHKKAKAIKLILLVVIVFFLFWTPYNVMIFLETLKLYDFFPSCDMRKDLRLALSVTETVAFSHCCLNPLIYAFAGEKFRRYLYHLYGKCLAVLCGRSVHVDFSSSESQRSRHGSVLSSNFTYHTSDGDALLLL
Assay: ChAMPion assay (CHO ChAMPion/CX3CR1 K1.6, cAMP/CNG channel, photoprotein luminescence)
Format: cell-based
Design: expressed in transfected cells; stably expresses a Ca2+ sensitive photo-protein
Settings: ChAMPion assay, CHO ChAMPion/CX3CR1 K1.6, Forskolin 3 μM; read-out: hCX3CR1 agonism EC50
Endpoint label: EC50 (µM)

Examples with their reported EC50 follow.
{"Compound": "O=C(NCC1(CN2CCCC2)Cc2ccccc2C1)c1cc2c(s1)CCCCCC2 [Example 11]", "Endpoint label": "EC50", "Observed value": 6.3}
{"Compound": "CCN(CC)CC1(CNC(=O)c2cc3c(s2)CCCCCC3)CCCC1 [Example 12]", "Endpoint label": "EC50", "Observed value": 6.2}
{"Compound": "O=C(NCC1(CN2CCCC2)CCCC1)c1cc2c(s1)CCCCCC2 [Example 5]", "Endpoint label": "EC50", "Observed value": 1.8}
{"Compound": "CC(C)(CNC(=O)c1cc2c(s1)CCCCCC2)CN1CCCC1 [Example 1]", "Endpoint label": "EC50", "Observed value": 2.1}

[A] O=C(NCC1(CN2CCCC2)CCCCC1)c1cc2c(s1)CCCCCC2 [Example 18]
[B] CN(C)CC1(CNC(=O)c2ccc3c(c2)CCCCCC3)CCCC1 [Example 33]
Exercise: Form field 'greater EC50' accepts A or B ; which applies? Answer by quoting the chosen item's label.
Solution: B
(B: 4 µM, A: 0.94 µM)
